System: mitochondrial permeability transition pore (mtPTP)
Experiment: Mitochondrial swelling assay
Assay type: biochemical, mouse
Conditions: read-out: mitochondrial swelling EC50; isolated mouse liver mitochondria
Listed here: items and their measured EC50.
Use nM as the unit, but write only the number.

The recorded EC50 for entry COc1ccc(-c2cc(C(=O)Nc3cc(Cl)ccc3C)no2)cc1O [Compound 46] equals 0.0076

The recorded EC50 for entry COc1ccc(-c2cc(C(=O)Nc3cc(Cl)cnc3C)no2)cc1O [Compound 54] equals 10

====

Assay: Plasma protein binding, mouse
Assay type: in vitro ADME
measured-quantity: fraction unbound

The recorded fraction unbound for entry Cc1c(Cl)cccc1NC(=O)c1cc(-c2ccc(F)c(O)c2)on1 equals < 0.01

Each recorded value in this set is attributed to paper PMC4674087.
